Listed here: items and their measured composite z-score.
Test system: glycogen synthase kinase-3 (GSK3A per assay name; protocol says GSK3B)
ASSAY NOTES: GSK3 binders on small-molecule microarrays, primary screen, biochemical, small-molecule microarray, 635 nm fluorescence, GSK3A (AID 1103); further: the record names both GSK3A and GSK3B
STATED CONDITIONS: small-molecule microarray binding, fluorescence 635 nm; higher = more signal

[
  {
    "STRUCTURE STRING": "CC(C)=NOC[C@@H](O)COCc1ccco1",
    "ASSAY TARGET": "glycogen synthase kinase-3 (GSK3A per assay name; protocol says GSK3B)",
    "composite z-score": -1.15
  },
  {
    "STRUCTURE STRING": "CO[C@H]1COC(=O)CC=C[C@@H](C)COC(=O)[C@@H](OCc2ccccc2)C=C[C@@H]1C",
    "ASSAY TARGET": "glycogen synthase kinase-3 (GSK3A per assay name; protocol says GSK3B)",
    "composite z-score": 1.1
  },
  {
    "STRUCTURE STRING": "CO[C@H]1COC(=O)[C@H](C)NC(=O)CC=C[C@@H](C)[C@H](OC)COC(=O)CC=C[C@@H]1C",
    "ASSAY TARGET": "glycogen synthase kinase-3 (GSK3A per assay name; protocol says GSK3B)",
    "composite z-score": 1.04
  },
  {
    "STRUCTURE STRING": "CCCNC(=O)OC[C@H]1O[C@H](CCON=C(C)CCN2CCc3nc(-c4ccccc4)c(-c4ccccc4)cc3C2)C=C[C@@H]1Oc1ccc(OC)cc1",
    "ASSAY TARGET": "glycogen synthase kinase-3 (GSK3A per assay name; protocol says GSK3B)",
    "composite z-score": -0.0859
  },
  {
    "STRUCTURE STRING": "C[C@@H]1CC[C@@H](C(=O)O)N[C@H]1c1ccc(-c2ccco2)cc1",
    "ASSAY TARGET": "glycogen synthase kinase-3 (GSK3A per assay name; protocol says GSK3B)",
    "composite z-score": 0.722
  },
  {
    "STRUCTURE STRING": "COc1ccc(COC(=O)NN=C2C[C@@H](O)[C@@H](O)[C@@H]3[C@@H]4C(=O)N(C(C)(C)C)C(=O)[C@@H]4CC[C@H]23)cc1",
    "ASSAY TARGET": "glycogen synthase kinase-3 (GSK3A per assay name; protocol says GSK3B)",
    "composite z-score": 0.241
  },
  {
    "STRUCTURE STRING": "CCN1C(=O)[C@H]2[C@H]3[C@H](O)[C@H](O)CC(=NNC(=O)OCc4ccc(OC)cc4)[C@H]3CC[C@H]2C1=O",
    "ASSAY TARGET": "glycogen synthase kinase-3 (GSK3A per assay name; protocol says GSK3B)",
    "composite z-score": -0.152
  },
  {
    "STRUCTURE STRING": "CC(C)CCN1CCc2nc(-c3ccccc3)c3c(c2C1)CO[C@@H](C)C3",
    "ASSAY TARGET": "glycogen synthase kinase-3 (GSK3A per assay name; protocol says GSK3B)",
    "composite z-score": 0.77
  }
]

* * *

ASSAY NOTES: small-molecule binders of probe aLefty1, primary screen, biochemical, small-molecule microarray, 635/667 nm fluorescence (AID 1153);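 further: score merges spot fluorescence with signal-to-noise ratio from the scanned slide images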
STATED CONDITIONS: higher = more signal

[
  {
    "COMPOUND": "C#CCCCON=C1C[C@@H](O)[C@@H](O)[C@@H]2[C@@H]3C(=O)N(C4CCCCC4)C(=O)[C@@H]3CC[C@H]12",
    "composite z-score": -0.147
  },
  {
    "COMPOUND": "C[C@@H](c1ccccc1)N1C(=O)[C@H]2[C@H]3[C@H](O)[C@H](O)CC(=O)[C@@H]3CC[C@H]2C1=O",
    "composite z-score": -0.229
  },
  {
    "COMPOUND": "CC(C)=NOC[C@@H](O)COCc1ccco1",
    "composite z-score": 0.843
  },
  {
    "COMPOUND": "C=C(C)C(=O)OC[C@@H]1CN2[C@@H](CC[C@@H](C)[C@@H]2c2ccc(Br)cc2)C(=O)O1",
    "composite z-score": 0.218
  },
  {
    "COMPOUND": "Cc1ccc(S(=O)(=O)N[C@H]2COC(=O)[C@@H](C)COC(=O)[C@H](C)NC(=O)CC=C[C@H]2C)cc1",
    "composite z-score": -0.195
  },
  {
    "COMPOUND": "CCN1C(=O)[C@H]2[C@H]3[C@H](O)[C@H](O)CC(=NOC)[C@@H]3CC[C@H]2C1=O",
    "composite z-score": -0.0654
  },
  {
    "COMPOUND": "CO[C@@H]1C=CCC(=O)N2CCC[C@H]2C(=O)OC[C@H](C)C(=O)OC[C@H]1C",
    "composite z-score": -0.0536
  },
  {
    "COMPOUND": "CC(C)=CCCC(C)=CCON=C1C[C@@H](O)[C@@H](O)[C@@H]2[C@@H]3C(=O)N([C@@H](C)c4ccccc4)C(=O)[C@@H]3CC[C@H]12",
    "composite z-score": -0.0603
  },
  {
    "COMPOUND": "CCOC(=O)NN=C1C[C@@H](O)[C@@H](O)[C@@H]2[C@@H]3C(=O)N(Cc4ccc5c(c4)OCO5)C(=O)[C@@H]3CC[C@@H]12",
    "composite z-score": -0.14
  },
  {
    "COMPOUND": "C[C@@H](ON=C1[C@H]2CCn3c(=O)n(-c4ccccc4)c(=O)n3[C@H]2[C@H](O)[C@@H]2O[C@H]12)c1cn([C@H](CO)Cc2ccccc2)nn1",
    "composite z-score": -0.049
  },
  {
    "COMPOUND": "CCOC(=O)NN=C1C[C@@H](O)[C@@H](O)[C@@H]2[C@@H]3C(=O)N(Cc4ccccc4)C(=O)[C@@H]3CC[C@@H]12",
    "composite z-score": -0.641
  },
  {
    "COMPOUND": "CCN1C(=O)[C@H]2[C@H]3[C@H](O)[C@H](O)CC(=NNC(=O)OCc4ccc(OC)cc4)[C@H]3CC[C@H]2C1=O",
    "composite z-score": 0.792
  },
  {
    "COMPOUND": "CC(=O)OC[C@H]1O[C@H](C#CC(C)(C)C)C=C[C@@H]1OC(C)=O",
    "composite z-score": -0.0969
  },
  {
    "COMPOUND": "CCCNC(=O)OC[C@H]1O[C@H](CCON=C(C)CCC(=O)OC[C@H]2O[C@H](C#Cc3ccccc3)C=C[C@@H]2Oc2ccc(C)cc2)C=C[C@@H]1Oc1ccc(OC)cc1",
    "composite z-score": -0.0917
  },
  {
    "COMPOUND": "CC(C)CON=C1C[C@@H](O)[C@@H](O)[C@@H]2[C@@H]3C(=O)N(c4cccc(Oc5ccccc5)c4)C(=O)[C@@H]3CC[C@H]12",
    "composite z-score": -0.298
  },
  {
    "COMPOUND": "CO[C@@H]1COC(=O)CC=C[C@H](C)COC(=O)[C@H](C)NC(=O)CC=C[C@H]1C",
    "composite z-score": -0.344
  },
  {
    "COMPOUND": "C=CCN(Cc1ccccc1)C(=O)C1N(c2c(Cl)cccc2CO)C(=O)C2C(C(=O)O)C3C=CC21O3 (configuration not stated)",
    "composite z-score": -0.147
  },
  {
    "COMPOUND": "CC(C)=NOCc1ccc(-c2cn([C@@H]3COC[C@H]3O)nn2)cc1",
    "composite z-score": -0.245
  },
  {
    "COMPOUND": "CO[C@H]1COC(=O)CC=C[C@@H](C)COC(=O)[C@@H](OCc2ccccc2)C=C[C@@H]1C",
    "composite z-score": -0.334
  },
  {
    "COMPOUND": "Cc1cc2c(nc1C)CCCN2CC(C)ON=C[C@@H](C)[C@H](OCc1ccccc1)C(C)C (some centres not stated)",
    "composite z-score": -0.0984
  },
  {
    "COMPOUND": "COc1ccc(COC(=O)NN=C2C[C@@H](O)[C@@H](O)[C@@H]3[C@@H]4C(=O)N(C(C)(C)C)C(=O)[C@@H]4CC[C@H]23)cc1",
    "composite z-score": 0.0169
  },
  {
    "COMPOUND": "CCCNC(=O)OC[C@H]1O[C@H](CCON=C(C)CCN2CCc3nc(-c4ccccc4)c(-c4ccccc4)cc3C2)C=C[C@@H]1Oc1ccc(OC)cc1",
    "composite z-score": -0.0054
  }
]

Reference for the values: PubChem BioAssay
